Every entry's value here was drawn from PubChem BioAssay.

# PROTOCOL DETAILS: antimalarial activity against Dd2 strain (AID 2302);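 further: 0% = DMSO untreated growth and 100% = chloroquine plus artemisinin killed control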
# CONDITIONS USED: P. falciparum Dd2 in RBCs, LDH growth readout, 72 h; at 2 µM; stronger effect = higher value
MEASUREMENT TYPE: growth inhibition (%)

1. COc1ccc(C(=O)[C@H]2C[C@@H]2CN(C)CC(O)c2cc(C)c(OC)cc2C)cc1 (stereo not given in full) ... 77
2. Cc1noc(C)c1S(=O)(=O)N(C)Cc1ccc(-c2ccc(Cl)cc2)o1 ... 100
3. C=C[C@H]1CN(CCCCCCC)CC[C@H]1CCNc1ccnc2ccc(OC)cc12 ... 81
4. Cc1cccc(C(=O)NCCCN2CCC(NC(=O)/C=C/c3ccc(Cl)c(Cl)c3)CC2)c1 ... 23
5. Fc1ccccc1-c1cc(Nc2ccncc2)nc(-c2cccnc2)n1 ... 89
